Target: Cell division control protein 42 homolog (Homo sapiens)
Experiment: inhibitors of activated Cdc42 GTP binding, SAR follow-up, selectivity assay for Rab7 inhibitor project, biochemical, activated mutant, bead multiplex, flow cytometry, round 1 (AID 588384)
Conditions: GST-Cdc42 act beads, fluorescent GTP binding, at 100 µM (top of the series)
Activity calls are given as the source filed them.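 How the source made its calls: active means half-maximal concentration at most 10 µM and% response shifting at least 30 points across doses; inactive means the rest.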
measuredMetric: % response (lower = inhibition)

[[record]]
compoundstructurestring = "CCOC(=O)c1c(NC(=S)NC(=O)c2ccccc2)sc2ccccc12"
testedon = "Cell division control protein 42 homolog (Homo sapiens)"
measuredmetric = "% response (lower = inhibition)"
reportedmeasurement = "inactive"

[[record]]
compoundstructurestring = "CCOC(=O)c1c(NC(=S)Nc2ccccc2)sc2c1CC(C)(C)OC2"
testedon = "Cell division control protein 42 homolog (Homo sapiens)"
measuredmetric = "% response (lower = inhibition)"
reportedmeasurement = "inactive"

[[record]]
compoundstructurestring = "CCOC(=O)c1c(NC(=O)Nc2ccc(C)cc2)sc2c1CCN(C)C2"
testedon = "Cell division control protein 42 homolog (Homo sapiens)"
measuredmetric = "% response (lower = inhibition)"
reportedmeasurement = "inactive"

[[record]]
compoundstructurestring = "COC(=O)c1c(N)sc2c1CC(C)(C)OC2"
testedon = "Cell division control protein 42 homolog (Homo sapiens)"
measuredmetric = "% response (lower = inhibition)"
reportedmeasurement = "inactive"

